Experiment: Pharmacokinetic properties in Sprague-Dawley rats after IV and PO administration
Assay type: in vivo
Settings: male, plasma, 5 mg/kg, rat, PO (5 mpk)
Description: III. Pharmacokinetic Properties of Compounds in Sprague-Dawley Rats after Intravenous (IV) and Oral Administrations (PO) […] The animals were housed in solid bottom polypropylene cages with sterilized bedding and receive sterilized diet and sterilized water. The room was controlled and monitored for humidity (targeted mean range 40% to 70%) and temperature (targeted mean range 18° C. to 26° C.) with 10 to 20 air changes/hour. […]
Assay Metric: Cmax
Number plus unit, in that order.

Solved entries (count: 2):
- Compound: "CC(C)Oc1c([C@H](C)c2nc(Cl)c3c(N)nccn23)cc(Cl)c(F)c1-c1ccc(C(F)(F)F)nc1 [Compound 40A]"
  Cmax: "179 ng/mL"
- Compound: "CC(C)Oc1c(C(C)c2nc(Cl)c3c(N)nccn23)cc(Cl)c(F)c1C1CNC(=O)C1 (single isomer, unassigned) [Compound 48B]"
  Cmax: "254 ng/mL"

Consider the record given below.
Entry under test: CC(C)Oc1c([C@H](C)c2nc(Cl)c3c(N)nccn23)cc(Cl)c(F)c1-c1ccc(C(=O)N(C)C)nc1 [Compound 16A] . Its Cmax was 496 ng/mL

Data provenance is patent US11725012B2.
